Experiment: Quantitative highthroughput screen to assess conditional lethalithy of P12 Ichikawa cells grown in RPMI1640 with dialyzed fetal bovine serum (RPMI+ds) (AID 1963880); note: nearly all actives have a fitted effect of over 35% in size;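 for viability: 100% = DMSO wells and 0% = empty wells on each plate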
Conditions: ATP luminescence, 48 h; P12-Ichikawa viability; series mostly up to 45.8 µM
Protocol: Assay Provider: Jason Cantor Ph.D. Department of Biochemistry University of Wisconsin-Madison, Madison, WI, USA Chemical screening studies have identified drug sensitivities across hundreds of cancer cell lines but most putative therapeutics fail to translate. […] Sets of conditional anticancer compounds spanned phases of clinical development and included non-oncology drugs were assessed. […] 6; Detection; Luminescence, Viewlux PerkinElmer. […]
Inconclusive results are not listed. Active and inactive are the calls of the source. Calls come from the whole dose curve; as a rule, active = well fitted cell-killing curve with a large enough effect; inconclusive = small, poorly fitted or top-dose-only effect; inactive = flat fitted curve, though single readings scatter.
// allowed return values: 1 for active, -1 for inactive

Worked cases, answers included:
compound | class
CC(=O)[C@H]1CC[C@H]2[C@@H]3CCC4=CC(=O)CC[C@]4(C)[C@H]3CC[C@]12C | -1
CC[C@]1(O)C[C@H]2CN(CCC3=c4ccccc4=N[C]3[C@@](C(=O)OC)(c3cc4c(cc3OC)N(C)[C@H]3[C@@](O)(C(N)=O)[C@H](O)[C@]5(CC)C=CCN6CC[C@]43[C@@H]65)C2)C1 | 1
CC(C)C[C@@H](N)[C@H](O)C(=O)N[C@H](C(=O)N[C@H](C(=O)N[C@@H](CC(=O)O)C(=O)O)C(C)C)C(C)C | -1
NC(=O)c1ncn([C@@H]2O[C@H](CO)[C@@H](O)[C@@H]2O)c1O | -1
COc1cc2c(cc1OC)CN(CCc1ccc(NC(=O)c3cccc4c(=O)c5cccc(OC)c5[nH]c34)cc1)CC2 | 1
COc1cc(NC(=O)c2ccc(-c3ccc(Cl)cc3)o2)cc(OC)c1 | -1
Cc1ccnc2c1NC(=O)c1cccnc1N2C1CC1 | -1
COc1cc(Nc2ncc(F)c(Nc3ccc4c(n3)NC(=O)C(C)(C)O4)n2)cc(OC)c1OC | 1
CC(C)(O)CNc1nc(Nc2ccnc(C(F)(F)F)c2)nc(-c2cccc(C(F)(F)F)n2)n1 | 1
CC(C)(C)[N+]([O-])=Cc1ccc(S(=O)(=O)O)cc1S(=O)(=O)O | -1

[in] Per the assay record, what outcome was assigned to O=c1cc(N2CCOCC2)oc2c(-c3ccccc3)cccc12 ?
[out] -1

[in] Per the assay record, what outcome was assigned to O=c1ccn([C@@H]2O[C@H](CO)[C@H](O)[C@@H]2F)c(=O)[nH]1 ?
[out] -1

[in] Per the assay record, what outcome was assigned to C[N+]1(C)[C@@H]2C[C@@H](OC(=O)C(O)(c3cccs3)c3cccs3)C[C@H]1[C@@H]1O[C@@H]12 ?
[out] -1

[in] Per the assay record, what outcome was assigned to O=C(NCCS(=O)(=O)c1ccc(C(F)(F)F)cn1)c1ccc(Cl)cc1 ?
[out] -1

[in] Per the assay record, what outcome was assigned to CN(C)c1ccc(C(=C2C=CC(=[N+](C)C)C=C2)c2ccc(N(C)C)cc2)cc1 ?
[out] 1

[in] Per the assay record, what outcome was assigned to COc1ccccc1OCC(O)CN1CCN(CC(=O)Nc2c(C)cccc2C)CC1 (stereo not given) ?
[out] -1
